# Target: human KLK7 (human, UniProt P49862 30-253, limits assumed)
# Sequence (P49862 30-253 limits assumed): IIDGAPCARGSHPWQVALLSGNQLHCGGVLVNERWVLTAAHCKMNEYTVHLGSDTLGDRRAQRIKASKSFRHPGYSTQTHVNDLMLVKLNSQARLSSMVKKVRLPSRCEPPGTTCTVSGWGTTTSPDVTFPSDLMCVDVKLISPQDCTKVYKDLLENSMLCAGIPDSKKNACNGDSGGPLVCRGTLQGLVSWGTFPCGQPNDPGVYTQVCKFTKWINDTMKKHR
# Assay details: column 6: KLK7 activity assay, 5 nM KLK7
Value kind: IC50

Examples from the recorded data:
[[record]]
binder = "10H3 (antibody, V domains shown, also called KLK5.10H3 (complex sample)) VH: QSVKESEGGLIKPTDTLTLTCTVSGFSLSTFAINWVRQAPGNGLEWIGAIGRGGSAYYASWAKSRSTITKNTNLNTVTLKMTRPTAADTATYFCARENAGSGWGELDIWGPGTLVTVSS VL: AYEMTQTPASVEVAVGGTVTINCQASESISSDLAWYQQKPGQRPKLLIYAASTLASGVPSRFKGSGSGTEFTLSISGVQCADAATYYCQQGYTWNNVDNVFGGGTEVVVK"
value_kind = "IC50"
reported_result = "> 100 nM"

[[record]]
binder = "10C8 (antibody, V domains shown) VH: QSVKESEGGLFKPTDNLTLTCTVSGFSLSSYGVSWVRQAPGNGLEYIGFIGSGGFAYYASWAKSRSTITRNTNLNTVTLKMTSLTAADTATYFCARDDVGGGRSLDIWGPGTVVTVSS VL: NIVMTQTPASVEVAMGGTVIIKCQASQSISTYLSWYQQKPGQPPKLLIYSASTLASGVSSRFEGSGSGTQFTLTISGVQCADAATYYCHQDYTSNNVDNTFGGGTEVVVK"
value_kind = "IC50"
reported_result = "> 100 nM"


IC50 reading for 9H5 (antibody, V domains shown, Rabbit monoclonal; also called Chimeric 9H5; KLK5.9H5 (complex sample)) VH: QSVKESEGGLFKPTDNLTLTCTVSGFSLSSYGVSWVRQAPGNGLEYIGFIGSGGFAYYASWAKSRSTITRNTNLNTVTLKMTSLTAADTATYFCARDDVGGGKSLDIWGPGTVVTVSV VL: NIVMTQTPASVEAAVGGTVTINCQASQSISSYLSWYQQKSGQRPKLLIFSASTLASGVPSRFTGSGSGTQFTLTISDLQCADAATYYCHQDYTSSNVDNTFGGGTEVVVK : > 100 nM
